tested on: TGFβ signal; test: TGFβ signal inhibitory activity, (SBE)4-Luc reporter in A549 cells (Test Examples 1A and 1B); format: cell-based, human; settings: Homo sapiens, A549; test compound 3 µM; TGFβ-1 2 ng/ml, 4 hr; Table 1A; read-out: TGFβ inhibition rate, %
Measured inhibition at 3 µM of individual entries
reportedEndpoint: inhibition at 3 µM (%)

INSERT INTO results (compoundstructurestring, numericreadout) VALUES
  ('COC(=O)c1cc2c(Oc3cc4cccnc4nc3-c3ccccc3)ccnc2cc1OC', 99),
  ('CCc1ccc(Oc2ccnc3ccc(OCCOC(C)=O)cc23)c(-c2ccccn2)n1', 99),
  ('COc1cc2nccc(Oc3cc(C)c(C)nc3-c3ccccn3)c2cc1OCCO', 93),
  ('Cc1cc(Oc2ncnc3ccccc23)c(-c2ccccn2)nc1C', 78),
  ('CCc1ccc(Oc2ccnc3ccc(OCc4ccccc4)cc23)c(-c2ccccn2)n1', 100),
  ('Cc1ccc(Oc2ccnc3ccc(OCCO)cc23)c(-c2ccccn2)n1', 98),
  ('c1ccc(-c2cc3nccc(Oc4cc5cccnc5nc4-c4ccccc4)c3s2)cc1', 99);

====

system: TGFβ signal; experiment: TGFβ signal inhibitory activity, (SBE)4-Luc reporter in A549 cells (Test Examples 1A and 1B); assay type: cell-based, human; conditions: Homo sapiens, A549; test compound 3 µM; TGFβ-1 2 ng/ml, 4 hr; Table 1A; read-out: TGFβ inhibition rate, %
Measured inhibition at 3 µM of individual entries
reportedEndpoint: inhibition at 3 µM (%)

INSERT INTO measurements (compoundstructurestring, targetsystem, unitdescriptor, numericreadout) VALUES
  ('Cc1ccc(Oc2ccnc3ccc(OCC(C)(C)CO)cc23)c(-c2ncccn2)n1', 'TGFβ signal', '%', 79),
  ('Cc1cc(Oc2ccnc3cc(Cl)ccc23)c(-c2ccccn2)nc1C', 'TGFβ signal', '%', 99),
  ('Cc1cc(Oc2ccnc3cc(OCCO)ccc23)c(-c2ccccn2)nc1C', 'TGFβ signal', '%', 100),
  ('c1cnc2nc(-c3csc4ccccc34)c(Oc3ccnc4ccccc34)cc2c1', 'TGFβ signal', '%', 22),
  ('COc1cc2c(Oc3cc4cccnc4nc3-c3ccccc3)ccnc2cc1F', 'TGFβ signal', '%', 76),
  ('Brc1ccc2ncnc(Oc3cc4cccnc4nc3-c3ccccc3)c2c1', 'TGFβ signal', '%', 52),
  ('Cc1cc(Oc2ccnc3ccc(-c4ccc(O)cc4)cc23)c(-c2ccccn2)nc1C', 'TGFβ signal', '%', 100),
  ('CCc1nc2ncccc2cc1Oc1ccnc2cc(OC)c(F)cc12', 'TGFβ signal', '%', 68),
  ('Cc1cc(Oc2ccnc3ccc(-c4ccc[nH]4)cc23)c(-c2ccccn2)nc1C', 'TGFβ signal', '%', 92),
  ('Cc1cc(Oc2ccnc3ccc(OCc4ccccc4)cc23)c(-c2ccccn2)nc1C', 'TGFβ signal', '%', 93),
  ('COc1cc2c(Oc3cc(C)c(C)nc3-c3ccccn3)ccnc2cc1F', 'TGFβ signal', '%', 99),
  ('Cc1ccc(Oc2ccnc3ccc(OCC4CCC4)cc23)c(-c2ncccn2)n1', 'TGFβ signal', '%', 98),
  ('COc1cc2nccc(Oc3cc4cccnc4nc3-c3ccccc3)c2cc1Br', 'TGFβ signal', '%', 98),
  ('CCc1ccc(Oc2ccnc3ccc(OCCOC(C)=O)cc23)c(-c2ncccn2)n1', 'TGFβ signal', '%', 89),
  ('Cc1cc(Oc2ccnc3ccccc23)c(-c2cccnc2)nc1C', 'TGFβ signal', '%', 84),
  ('Cc1cc(Oc2ccnc3cc(Cl)c(Cl)cc23)c(-c2ccccn2)nc1C', 'TGFβ signal', '%', 99),
  ('COc1cc2nccc(Oc3cc4cccnc4nc3-c3ccccc3)c2cc1OC(C)C', 'TGFβ signal', '%', 100),
  ('COc1cc2nccc(Oc3cc(C)c(C)nc3-c3ccccn3)c2cc1OC(C)C', 'TGFβ signal', '%', 94);

====

tested on: TGFβ signal; assay: TGFβ signal inhibitory activity, (SBE)4-Luc reporter in A549 cells (Test Examples 1A and 1B); type: cell-based, human; conditions: Homo sapiens, A549; test compound 3 µM; Reference Examples, Table 1B; read-out: TGFβ inhibition rate, %
Measured inhibition at 3 µM of individual entries
reportedEndpoint: inhibition at 3 µM

INSERT INTO results (compoundstructurestring, result) VALUES
  ('COc1cc2c(Oc3ccc(C)cc3C(=O)c3ccccc3)ccnc2cc1OCCCCN1CCNCC1', '98%'),
  ('COc1cc2nccc(Oc3ccc4ccccc4c3)c2cc1OC', '15%'),
  ('CCCCOC(=O)c1ccccc1Oc1ccnc2cc(OC)c(OC)cc12', '4%'),
  ('COc1ccc(Oc2ccnc3cc(OC)c(OC)cc23)c(C=O)c1', '20%'),
  ('CCOC(=O)c1cc(F)ccc1Oc1ccnc2cc(OC)c(OC)cc12', '41%'),
  ('COc1cc2nccc(Oc3ccccc3C(=O)OCCC(C)C)c2cc1OC', '7%'),
  ('COc1cc2nccc(Oc3ccc(C)cc3C(=O)c3ccno3)c2cc1OC', '61%'),
  ('COc1cc2c(Oc3ccc(C)cc3C(=O)c3ccccc3)ccnc2cc1OCCNCCO', '99%'),
  ('CCOC(=O)/C(C)=C/c1cc(OC)ccc1Oc1ccnc2cc(OC)c(OC)cc12', '10%'),
  ('COc1cc2nccc(Oc3ccccc3Cc3ccccc3)c2cc1OC', '5%'),
  ('COc1ccc(Oc2ccnc3cc(OCCCN4CCOCC4)c(OC)cc23)c(C(C)=O)c1', '100%'),
  ('COc1cc(OC)c(C(C)=O)c(Oc2ccnc3cc(OC)c(OC)cc23)c1', '12%'),
  ('C=C(C)C(=O)Oc1ccc(C(=O)c2ccccc2)c(Oc2ccnc3cc(OC)c(OC)cc23)c1', '4%'),
  ('COc1cc2c(Oc3ccc(C)cc3C(=O)c3ccccc3)ccnc2cc1OCCCN1CCN(C)CC1', '96%'),
  ('COc1ccc(Oc2ccnc3cc(OCCCl)c(OC)cc23)c(C(C)=O)c1', '96%'),
  ('COc1cc2nccc(Oc3ccc(C)cc3C(=O)CCC3CCCC3)c2cc1OC', '0%'),
  ('CCCCCCCCOc1ccc(C(=O)c2ccccc2)c(Oc2ccnc3cc(OC)c(OC)cc23)c1', '22%'),
  ('COc1cc2nccc(Oc3ccc(C)cc3C(=O)C(C)(C)C)c2cc1OC', '13%');

====

test system: TGFβ signal; experiment: TGFβ signal inhibitory activity, (SBE)4-Luc reporter in A549 cells (Test Examples 1A and 1B); assay type: cell-based, human; settings: Homo sapiens, A549; test compound 3 µM; TGFβ-1 2 ng/ml, 4 hr; Table 1A; read-out: TGFβ inhibition rate, %
reportedEndpoint: inhibition at 3 µM

INSERT INTO results (compoundstructurestring, reportedendpoint, result) VALUES
  ('COc1cc2nccc(Oc3cc4cccnc4nc3-c3ccccc3)c2cc1OCCO', 'inhibition at 3 µM', '99%'),
  ('CCc1ccc(Oc2ccnc3ccc(OS(C)(=O)=O)cc23)c(-c2ccccn2)n1', 'inhibition at 3 µM', '100%'),
  ('Cc1cc(Oc2ccnc3cc(-c4ccc(O)cc4)ccc23)c(-c2ccccn2)nc1C', 'inhibition at 3 µM', '100%'),
  ('COc1cc2nccc(Oc3cc4cccnc4nc3-c3ccccc3)c2cc1C(=O)NCc1ccccc1', 'inhibition at 3 µM', '97%'),
  ('Cc1cc(Oc2ncnc3ccc(Br)cc23)c(-c2ccccn2)nc1C', 'inhibition at 3 µM', '89%'),
  ('CCc1ccc(Oc2ccnc3ccc(O)cc23)c(-c2ncccn2)n1', 'inhibition at 3 µM', '99%'),
  ('Cc1ccc(Oc2ccnc3ccc(OCCCN4CCN(CCO)CC4)cc23)c(-c2ncccn2)n1', 'inhibition at 3 µM', '39%'),
  ('COc1cc2ncnc(Oc3cc(C)c(C)nc3-c3ccccn3)c2cc1OC', 'inhibition at 3 µM', '100%'),
  ('CCc1ccc(Oc2ccnc3ccc(OCCO)cc23)c(-c2ccccn2)n1', 'inhibition at 3 µM', '100%');

====

Test system: TGFβ signal
Assay: TGFβ signal inhibitory activity, (SBE)4-Luc reporter in A549 cells (Test Examples 1A and 1B)
Format: cell-based, human
Conditions: Homo sapiens, A549; test compound 10 µM; Reference Examples, Table 1B; read-out: TGFβ inhibition rate, %
Experimental: Test Example 1A: TGFβ signal inhibitory activity (in vitro test) The compounds according to the present invention was evaluated for TGFβ signal inhibitory activity according to the method described in J. Boil .Chem., 273, 21145-21152 (1998). […] After the culture, the luciferase activity of the cells were measured by chemiluminescence (Steady Glo (trademark) luciferase assay system, available from Promega). […]
Measured inhibition at 10 µM of individual entries
reportedEndpoint: inhibition at 10 µM (%)

INSERT INTO measurements (molecule, reportedendpoint, numericreadout) VALUES
  ('COc1cc2nccc(Oc3ccc(Cl)cc3C(N)=O)c2cc1OC [Compound r106]', 'inhibition at 10 µM', 80),
  ('CCCCC(=O)c1cc(C)ccc1Oc1ccnc2cc(OC)c(OC)cc12 [Compound r52]', 'inhibition at 10 µM', 100),
  ('COc1cc2nccc(Oc3ccc(C)cc3C(=O)c3ccc(C(C)(C)C)cc3)c2cc1OC [r73]', 'inhibition at 10 µM', 81),
  ('COc1cc2c(Oc3ccc(C)cc3C(=O)c3ccccc3)ccnc2cc1OCCn1ccnc1 [Compound r131]', 'inhibition at 10 µM', 100),
  ('COc1cc2c(Oc3ccc(C)cc3C(=O)c3ccccc3)ccnc2cc1OCCCCNCCO [r142]', 'inhibition at 10 µM', 100);
